# Test system: MCF-7 (breast) cancer cell line
# test-method-notes: NCI sulforhodamine B growth inhibition, MCF-7
# Assay type: cell-based, human
# assay-setup: MCF-7, 48 h, bracketed value, read-out: GI50
Reported GI50 values follow for various compounds

compound	measure	recorded-value
CC[C@H](C)[C@@H]([C@@H](CC(=O)N1CCC[C@H]1[C@H](OC)[C@@H](C)C(=O)NCCc1ccc2cccnc2c1)OC)N(C)C(=O)[C@@H](NC(=O)[C@H](C(C)C)N(C)C)C(C)C [Quinstatin 7]	GI50	0.039 nM
CC[C@H](C)[C@@H]([C@@H](CC(=O)N1CCC[C@H]1[C@H](OC)[C@@H](C)C(=O)N[C@H](C)[C@@H](O)c1ccccc1)OC)N(C)C(=O)[C@@H](NC(=O)[C@H](C(C)C)N(C)C)C(C)C [Auristatin E, auristatin E, reference compound]	GI50	0.232 nM
CC[C@H](C)[C@@H]([C@@H](CC(=O)N1CCC[C@H]1[C@H](OC)[C@@H](C)C(=O)NCCc1ccc2ccccc2n1)OC)N(C)C(=O)[C@@H](NC(=O)[C@H](C(C)C)N(C)C)C(C)C [Quinstatin 2]	GI50	0.412 nM

Moving on to another compound below.
# return recorded GI50 for input CC[C@H](C)[C@@H]([C@@H](CC(=O)N1CCC[C@H]1[C@H](OC)[C@@H](C)C(=O)N[C@@H](Cc1ccccc1)c1nccs1)OC)N(C)C(=O)[C@@H](NC(=O)[C@H](C(C)C)N(C)C)C(C)C [Dolastatin 10, dolastatin 10, reference compound] 0.005 nM
